Values were extracted from PubChem BioAssay AID2717.

Here the recorded inhibition is given for each entry.
test: cancer stem cell viability inhibitors, primary screen, luminescence (AID 2717); conditions: cancer stem cell-like cells viability, at 7.5 µM, hits give high values
Screen size: about 300,000 compounds; about 3,200 (1.1%) were called active. This excerpt belongs to a sample that is enriched for actives.
State the answer as a number, implicitly in %.

Please review the entries below; each comes with its answer.
1) C=C(Br)Cn1c(CCCC)nc2ccccc21 : 77.7
2) COc1ccc(N(CCC(=O)NCCc2ccccc2)S(=O)(=O)c2ccc(C)cc2C)cc1 : 0.378
3) COCCCNC(=O)CSc1nc2ccc(N3CCOCC3)cc2c(=O)n1CCc1ccccc1 : 20.5
4) CC1=NN(c2ccc(Cl)c(C(=O)O)c2)C(=O)/C1=C/c1ccc(-c2ccccc2[N+](=O)[O-])o1 : 12.7
5) NS(=O)(=O)c1ccc(NC(=O)COC(=O)c2c3c(nc4ccccc24)/C(=C\c2ccc4c(c2)OCO4)CCC3)cc1 : 93.4

Which inhibition reading was recorded for the molecule O=C(Nc1ccccc1)/C(=C/c1ccc([N+](=O)[O-])cc1)NC(=O)c1ccccc1 ?
-13

Query (molecule): COc1cc(-c2cc(C(=O)OCC(=O)Nc3ccc4c(c3)OCO4)c3ccccc3n2)cc(OC)c1OC ; field requested: inhibition
-14.5

Form field: reported inhibition of COc1ccc(C(=O)C(C)OC(=O)c2cccc(S(=O)(=O)Nc3c(C)n(C)n(-c4ccccc4)c3=O)c2)cc1 (configuration not stated)
-12.3

Entry O=C(/C=C(O)/C=C/c1ccc(O)cc1)/C=C/c1ccc(O)cc1 has what inhibition?
44.3

Value lookup for inhibition; key = CN=C(Nc1cccc(S(=O)(=O)N2CCOCC2)c1)c1ccccc1
-5.3

###

test: cancer stem cell viability inhibitors, primary screen, luminescence (AID 2717); conditions: cancer stem cell-like cells viability, at 7.5 µM, hits give high values
Screen size: about 300,000 compounds; about 3,200 (1.1%) were called active. Shown is part of a subset that was picked to be rich in actives.
Measured inhibition values are reported for all entries that follow.
Only the number, expressed in %, is required.

Reference set (4 entries):
1) CC1(C)Cc2ccccc2/C(=C/C(=O)c2ccccc2)N1 : 78.5
2) CS(=O)(=O)c1ccc(C(=O)NNC(=O)c2cccs2)cc1 : -0.179
3) Cc1nn(C)c(C)c1NS(=O)(=O)c1ccc(OC(F)(F)F)cc1 : 1.58
4) CC1(C)Cc2ccccc2-c2[nH]c(=S)[nH]c(=O)c21 : 0.325

Recorded inhibition for CCOC(=O)C1=C(NC(=S)NC(=O)c2ccccc2)c2ccccc2CC1(C)C , please?
3.23

Param item = COc1cccc(-c2ccc3c(c2)S(=O)(=O)c2cccc(C(=O)O)c2C3=O)c1OC ; retrieve measured inhibition.
7.27

Requested read-out: inhibition. Entry: COc1ccc(CCNC(=O)CSc2nc3[nH]ncc3c(=O)n2-c2cccc(C(F)(F)F)c2)cc1OC
-2.41

###

assay: cancer stem cell viability inhibitors, primary screen, luminescence (AID 2717); details: cancer stem cell-like cells viability, at 7.5 µM, hits give high values
Out of some 300,000 compounds screened, about 3,200 (1.1%) were called active. Many of the other results were omitted from the sample, so actives are more common in it than they were.
Reported inhibition by item:
Your answer is read as %, so omit the unit and give the number.

Here are 4 compounds together with their reported answers.
1. CCOc1ccccc1Nc1ccc2nonc2c1[N+](=O)[O-] : -3.74
2. COc1ccc(/C=C/c2nnc(NC(=O)C(C)C)s2)cc1 : -1.02
3. COc1ccc(NC(=O)COC(=O)c2ccc(NS(=O)(=O)/C=C/c3ccccc3)cc2)cc1 : -2.32
4. c1ccc(-c2ccc(OCCN3CCOCC3)cc2)cc1 : 5.72

Need inhibition of CC(C)(C)OC(=O)C[C@@H]1C/C=C\C[C@@H](CC(=O)N[C@@H](CO)Cc2ccccc2)C(=O)N2CCC[C@H]2COC1=O , thanks.
-16.5

What value of inhibition has been reported for the following compound? CNC[C@H]1Oc2c(NC(=O)C3CCCCC3)cccc2C(=O)N([C@H](C)CO)C[C@@H]1C
1.2

I would be grateful if you could share the reported inhibition for C[C@@H](CN1CCC[C@H]1CN1C(N)=NC[C@@H]1Cc1ccccc1)N1C[C@@H](Cc2ccccc2)N(CCCC2CCCC2)C1=N .
1.15
